# SYSTEM_UNDER_TEST: UniProt:P30559
# Sequence (P30559 1-389): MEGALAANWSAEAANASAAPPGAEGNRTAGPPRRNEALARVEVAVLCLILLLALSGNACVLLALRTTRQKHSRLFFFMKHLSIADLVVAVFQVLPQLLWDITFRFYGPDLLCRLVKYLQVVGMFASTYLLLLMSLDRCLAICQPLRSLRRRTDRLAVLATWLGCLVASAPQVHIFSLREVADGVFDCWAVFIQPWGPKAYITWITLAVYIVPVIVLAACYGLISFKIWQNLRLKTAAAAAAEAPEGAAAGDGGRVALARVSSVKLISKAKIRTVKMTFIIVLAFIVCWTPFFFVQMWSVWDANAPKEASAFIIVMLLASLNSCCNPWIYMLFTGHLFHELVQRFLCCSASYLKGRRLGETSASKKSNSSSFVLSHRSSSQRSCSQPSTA
# TEST: Calcium flux assay (FLIPR), agonist mode, CHO cells expressing human OTR
# ASSAY_CONTEXT: CHO cells stably expressing human OTR; calcium flux; read-out: hOT EC50
Positions of bridges follow the written chain, without caps; N, C: chain ends. Non-standard residues stand in square brackets, D forms with d. Residues, ends and D or L forms follow the SMILES beside them. Aib = CC(C)(N)C(=O)O; Sar = CNCC(=O)O
Entries and their EC50 values follow.
ENDPOINT_NAME: EC50 (nM)

- CC[C@H](C)[C@@H]1NC(=O)[C@H](Cc2ccc(O)cc2)NC(=O)CNC(=O)CC[C@@H](C(=O)N(C)CC(=O)N[C@H](C(=O)NCC(N)=O)C(C)C)NC(=O)[C@H](CC(N)=O)NC(=O)[C@H](CCC(N)=O)NC1=O [Example 26] (GYIQNE[Sar]VG-NH2; lactam N-6): 2
- CC(C)C[C@@H]1NC(=O)[C@H](Cc2ccc(O)cc2)NC(=O)CNC(=O)CC[C@@H](C(=O)N2CCC[C@H]2C(=O)N[C@@H](CC(C)C)C(=O)NCC(N)=O)NC(=O)[C@H](CC(N)=O)NC(=O)[C@H](CCC(N)=O)NC1=O [Example 8] (GYLQNEPLG-NH2; lactam N-6): 100
- CC[C@H](C)[C@@H]1NC(=O)[C@H](Cc2ccc(O)cc2)NC(=O)CNC(=O)CC[C@@H](C(=O)N2CCC[C@@H]2C(=O)N[C@@H](CC(C)C)C(=O)NCC(N)=O)NC(=O)[C@H](CC(N)=O)NC(=O)[C@H](CCC(N)=O)NC1=O [Example 23] (GYIQNE[dP]LG-NH2; lactam N-6): 88
- CC[C@H](C)[C@@H]1NC(=O)[C@H](Cc2ccc(O)cc2)NC(=O)CNC(=O)CC[C@@H](C(=O)N(C)CC(=O)NC(C)(C)C(=O)NCC(N)=O)NC(=O)[C@H](CC(N)=O)NC(=O)[C@H](CCC(N)=O)NC1=O [Example 49] (GYIQNE[Sar][Aib]G-NH2; lactam N-6): 5.9
